// reported pIC50 for each item listed
biological target: caspase-3 (Homo sapiens); construct: purchased Sigma-Aldrich (St. Louis, Mo.); assay: Enzyme inhibition assay, caspase 3 (fluorogenic Ac-DEVD-AMC); type: biochemical; details: IC50 for caspase-3
Sequence (P42574 29-175 limits assumed): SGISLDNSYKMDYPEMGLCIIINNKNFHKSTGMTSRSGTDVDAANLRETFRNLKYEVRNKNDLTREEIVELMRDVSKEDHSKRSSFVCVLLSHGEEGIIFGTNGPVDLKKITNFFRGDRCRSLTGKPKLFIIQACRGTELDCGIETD
Sequence (P42574 176-277 limits assumed): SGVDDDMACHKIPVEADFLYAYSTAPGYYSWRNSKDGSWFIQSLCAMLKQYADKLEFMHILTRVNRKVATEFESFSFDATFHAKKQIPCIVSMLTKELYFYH
Note on units: pIC50 is unitless, being -log10 of a concentration expressed in mol/L.

MOLECULE	pIC50
COc1ccc(CN2C(=O)C(=C(C#N)C#N)c3cc(S(=O)(=O)N4CCCC4COc4cccnc4)ccc32)cc1 (centres unmarked) [Compound 30d]	8.11
N#CC(C#N)=C1C(=O)N(Cc2ccc(O)cc2)c2ccc(S(=O)(=O)N3CCCC3COc3cccnc3)cc21 (centres unmarked) [Compound 30b]	8.11
N#CC(C#N)=C1C(=O)N(Cc2ccccc2)c2ccc(S(=O)(=O)N3CCCC3COc3ccccc3)cc21 (centres unmarked) [Compound 27b]	7.56
N#CC(C#N)=C1C(=O)N(Cc2ccccc2)c2ccc(S(=O)(=O)N3CCCC3COc3cccnc3)cc21 (centres unmarked) [Compound 30a]	8.12

Kindly consider the entry below.
Query: Given N#CC(C#N)=C1C(=O)N(Cc2ccc(Br)cc2)c2ccc(S(=O)(=O)N3CCCC3COc3cccnc3)cc21 (centres unmarked) [Compound 30c] , state its recorded pIC50.
Reply: 8.29

###

molecular target: caspase-3 (Homo sapiens); construct: purchased Sigma-Aldrich (St. Louis, Mo.); assay: Enzyme inhibition assay, caspase 3 (fluorogenic Ac-DEVD-AMC); assay type: biochemical; conditions: Table 5; read-out: IC50 (nM) caspase-3
// reported IC50 for each item listed
Use nM as the unit, but write only the number.

COMPOUND	DISPLAY UNIT	IC50
O=C1C(=O)N(Cc2ccc(F)nc2)c2ccc(S(=O)(=O)N3CC[C@H]3COc3ccccc3)cc21 [Compound 18g]	nM	10.9
COc1ccc(CN2C(=O)C(=O)c3cc(S(=O)(=O)N4CC[C@H]4COc4ccccc4)ccc32)cc1 [Compound 18c]	nM	8.4

Kindly consider the entry below.
Query: Given O=C1Nc2ccc(S(=O)(=O)N3CC[C@H]3COc3ccccc3)cc2C1=O , state its recorded IC50.
Reply: 287

###

biological target: caspase 7 (Homo sapiens, UniProt P55210); construct: purchased Sigma-Aldrich (St. Louis, Mo.); experiment: Enzyme inhibition assay, caspase 7 (fluorogenic Ac-DEVD-AMC); type: biochemical; conditions: Table 6; read-out: IC50 (nM) caspase-7
Sequence (P55210 24-198 limits assumed): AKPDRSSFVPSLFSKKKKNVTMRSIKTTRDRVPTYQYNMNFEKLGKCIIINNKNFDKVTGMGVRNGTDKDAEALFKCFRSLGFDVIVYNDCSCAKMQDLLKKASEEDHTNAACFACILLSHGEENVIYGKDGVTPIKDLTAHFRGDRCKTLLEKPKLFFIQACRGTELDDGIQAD
Sequence (P55210 207-303 limits assumed): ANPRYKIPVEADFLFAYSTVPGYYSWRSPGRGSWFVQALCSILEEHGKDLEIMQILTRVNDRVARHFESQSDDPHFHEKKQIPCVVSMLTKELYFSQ
PROPERTY NAME: IC50 (nM)
Use nM as the unit, but write only the number.

Below are worked cases with known answers.
MOLECULE	DISPLAY UNIT	IC50
CSc1ccc(CN2C(=O)C(=O)c3cc(S(=O)(=O)N4CCCC4COc4cccnc4)ccc32)cc1 (stereo not shown) [Compound 21d]	nM	23.3
O=C1Nc2ccc(S(=O)(=O)N3CCCC3COc3cccnc3)cc2C1=O (stereo not shown) [Compound 20]	nM	215
O=C1Nc2ccc(S(=O)(=O)N3CCCC3COc3ccncc3)cc2C1=O (stereo not shown) [Compound 23]	nM	142
CN1C(=O)C(=O)c2cc(S(=O)(=O)N3CCCC3COc3cccnc3)ccc21 (stereo not shown) [Compound 21a]	nM	94.9
COc1ccc(CN2C(=O)C(=O)c3cc(S(=O)(=O)N4CCCC4COc4cccnc4)ccc32)cc1 (stereo not shown) [Compound 21c]	nM	15.1

Query: Given O=C1C(=O)N(Cc2ccc(F)cc2)c2ccc(S(=O)(=O)N3CCCC3COc3cccnc3)cc21 (stereo not shown) [Compound 21e] , state its recorded IC50.
Reply: 15.1

Query: Given O=C1C(=O)N(Cc2ccccc2)c2ccc(S(=O)(=O)N3CCCC3COc3cccnc3)cc21 (stereo not shown) [Compound 21b] , state its recorded IC50.
Reply: 14.1
